These entries and their values trace back to PubChem BioAssay.

- METHOD_SUMMARY: inhibitors of TNFa-induced NFkB p65 translocation, primary screen, imaging, HUVEC, MLSMR starter and 10KST1 sets (AID 438);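 also: compound added about 3h40 before a 20 min TNFalpha stimulation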
- ASSAY_CONTEXT: HUVEC TNFa-induced p65 nuclear translocation; measured here: nuclei count (cytotoxicity indicator), at 2.08 µM
Where a SMILES comes first, the peptide text is derived from it. The star is where a group is joined. Boc = CC(C)(C)OC(=O)*
compounds and their reported cell count
PROPERTY_LABEL: cell count

1. COc1ccc(OC)c(S(=O)(=O)N2CCC(C(=O)NCC3CCCO3)CC2)c1 (stereo not drawn)	268
2. Cn1c(=O)c(=O)n(C)c2cc(S(=O)(=O)N3CCCCC3)ccc21	289
3. COc1ccc2cc3cc(C(=O)NCC4CCCO4)oc3nc2c1 (stereo not drawn)	323
4. O=C(CSc1nnc2ccccn12)c1ccccc1	535
5. CC(=O)NC(Cc1ccc(C)cc1)C(=O)NC1CCN(C(=O)c2cnccn2)CC1 (stereo not drawn)	740
6. CCN(c1cccc(C(F)(F)F)c1)S(=O)(=O)c1ccc2c(c1)CCN2C(=O)C1CC1	495
7. O=S(=O)(c1cc(Cl)ccc1Br)N1CCOCC1	450
8. C#CCN1C(=O)C(O)(CC(=O)c2cc(OC)ccc2OC)c2ccccc21 (stereo not drawn)	841
9. NCc1cccc(-n2cccn2)c1	680
10. CC(NC(=O)OC(C)(C)C)C(=O)N1CCCC1C(=O)NC(Cc1ccccc1)C(N)=O (stereo not drawn) (Boc-Ala-Pro-Phe-NH2; configuration not given here)	220
11. CCCCP(=O)(CCCC)c1ccccc1C(=O)O	404
12. O=C(Nc1cccnc1)c1noc2c1CCCCC2	253
13. CC1=C(C(=O)NC2CCCC(C)C2C)C2(CCCCC2)OC1=O (stereo not drawn)	515
14. CC1(C)CC(=O)C2=C(C1)OC(N)=C(C#N)C2C1CC=CCC1 (stereo not drawn)	569
15. Cc1csc(NC(=O)C2CCCO2)n1 (stereo not drawn)	725
16. CC1CN(c2ccc(Oc3ccccc3)cc2)c2nc3c(c(=O)n(CC(N)=O)c(=O)n3C)n2C1 (stereo not drawn)	706
17. CCCCCc1c(O)nc(SCC(=O)NCC2CCCO2)[nH]c1=O (stereo not drawn)	579
18. Cc1ccc(NC(=O)CSc2nnc(-c3ccncc3)n2C)cc1C	822
19. CCOC(=O)C1=C(C)OC(N)=C(C#N)C1c1ccoc1 (stereo not drawn)	558
20. Cc1ccc2c(c1)C(O)(CC(=O)c1ccc3c(c1)OCO3)C(=O)N2 (stereo not drawn)	671
21. Cc1ccc(NC(=O)c2ccccc2O)cc1	631
22. O=C(NCc1cccs1)c1cc2c(s1)-c1ccccc1OC2	674
23. Cn1c(=O)c(=O)n(C)c2cc(S(=O)(=O)CCC(=O)N3CCOCC3)ccc21	773

----------
- METHOD_SUMMARY: TLR3 IRF3 reporter activation blockers – cell-based, poly I:C stimulus, luciferase, 10K MLSCN set, primary screen (AID 602277)
- ASSAY_CONTEXT: HEK293-TLR3 RL24 IRF3 luciferase reporter, at 10 µM, stronger effect = higher value
Quick rule: inhibition of at least 20% means rule met, below that means rule not met.

1) Cc1cc(C)n(S(=O)(=O)c2cc(C(=O)O)c(Cl)cc2Cl)n1	rule not met
2) CCCOc1ccccc1NC(=O)c1c(-c2ccccc2)noc1C	rule met
3) CCC(=O)OCCn1c(=O)c2cc3c(=O)n(CCOC(=O)CC)c(=O)c3cc2c1=O	rule not met
4) COc1ccc(-c2noc(CCCC(=O)O)n2)cc1	rule met
5) COc1ccc(C(=O)N2CCN(C(=O)c3ccco3)CC2)cc1OC	rule not met
6) Cc1cccc(N2CCN(C(=O)C3CCCN(S(=O)(=O)c4c(C)noc4C)C3)CC2)c1C (stereo not drawn)	rule not met
7) c1ccn2c(SCc3ccc4c(c3)OCCO4)nnc2c1	rule not met
8) CCOC(=O)c1c(-c2ccc(C)o2)csc1NC(=O)COC(=O)c1cccs1	rule not met
9) COc1cc(CN(C)CC(=O)c2[nH]c(C)c(C(C)=O)c2C)ccc1OC(F)F	rule not met
10) COc1cccc(-c2nc(CS(=O)(=O)CC(=O)Nc3cc(C)ccc3C)c(C)o2)c1	rule met
11) CCN(Cc1ccccc1)C(c1ccncc1)c1nnnn1C(C)(C)C (stereo not drawn)	rule met
12) O=C(Nc1ccc2c(c1)OCO2)c1cc2ncc(Br)cn2n1	rule not met
13) Cc1cc2oc(=O)cc(C)c2c(=O)o1	rule not met
14) CCNC(=O)CC1C(=O)N(c2ccccc2)C(=O)N1CCC(C)C (stereo not drawn)	rule met
15) CC(C)Cc1nnc(NC(=O)CCC(=O)N2CCOCC2)s1	rule not met
16) CCCc1cc(C(=O)Nc2sc3c(c2C#N)CCC3)no1	rule not met
17) O=C(CSc1nnc(Cc2cccs2)n1Cc1ccco1)Nc1cccc(Cl)c1	rule met
18) CCCc1c(O)nc(SCC(=O)NCCc2ccc(OC)c(OC)c2)[nH]c1=O	rule not met
19) N#Cc1ccccc1Cn1c(=O)n(Cc2ccc(C(=O)NCc3ccco3)cc2)c(=O)c2ccccc21	rule not met
20) CCCc1nnc2n1N=C(c1ccc(OC)c(OC)c1)CS2	rule met
21) CCOC(=O)c1ccc(NC(=O)COc2ccc(-n3cnnn3)cc2)cc1	rule not met
22) CC(C)(C)SCCNC(=O)COc1ccc(Cl)cc1	rule not met
23) CN(Cc1cccs1)C(=O)CCc1ccc(S(=O)(=O)N2CCOCC2)cc1	rule not met
